Assay: Mycobacterium tuberculosis growth inhibition, primary screen (AID 1259343)
Conditions: at 10 µM
Out of some 6,200 compounds screened, about 2,900 (47%) were called active. Cut-off read from the data, not from the text of the source: active = inhibition above about 50%; inactive = the rest. The set was probably picked from earlier hits. The list shows a part of the results.
Possible outcomes: active, inactive

{"columns": ["compound", "class.name"],
 "data": [
  ["O=C(CSc1ncnc2sc3c(c12)CCC3)N1CCCC1", "inactive"],
  ["Clc1ccc(OCC2CCCNC2)c2ccccc12 (configuration not stated)", "active"],
  ["CCN=c1scc(-c2ccco2)n1N=Cc1ccc2c(c1)OCO2", "inactive"],
  ["CN=c1scc(-c2c(-c3ccccc3)n(C)c3ccccc23)n1C", "inactive"],
  ["CC(C)(C)C(=O)COC(=O)CNC(=O)c1ccccc1", "active"],
  ["CC(C)(C)OC(=O)CSc1ncnc2sc3c(c12)CCCC3", "active"],
  ["O=C(CSc1ncnc2sc3c(c12)CCCC3)N1CCOCC1", "active"],
  ["Nc1scc(-c2ccc(Oc3ccccc3)cc2)[n+]1CCCS(=O)(=O)[O-]", "active"],
  ["CN(C)C(=O)CSc1ncnc2sc3c(c12)CCCC3", "active"],
  ["CN=c1scc(-c2cccc(Br)c2)n1N=Cc1ccncc1", "inactive"],
  ["O=C(Nc1cccc(-c2cccc(F)c2)c1)C1CCN(CC2CCOC2)CC1 (configuration not stated)", "inactive"],
  ["O=C(O)CCCSc1ncnc2sc3c(c12)CCCC3", "active"]
]}

---

Assay: Mycobacterium tuberculosis growth inhibition, primary screen (AID 1259343)
Details: at 10 µM, hits give high values
Screen size: about 6,200 compounds; about 2,900 (47%) were called active. So high a share suggests a set chosen from earlier hits. The list shows a part of the results.
Where inhibition equals or exceeds 70%, the correct label is YES; where it does not, the label is NO.

{"columns": ["molecule", "class.name"],
 "data": [
  ["CC1CCN(c2nnc(C(=O)Nc3ccccc3)c3ccccc23)CC1", "NO"],
  ["O=C(NCC1CC1)c1cc(-c2ccc(Br)cc2)n[nH]1", "NO"],
  ["Brc1ccccc1-c1nnc(CSc2nnnn2C2CC2)o1", "NO"],
  ["CC(NC(=O)c1cc(Cl)ccc1NS(C)(=O)=O)c1ccc2c(c1)OCO2 (stereo not given)", "NO"],
  ["Fc1ccccc1-c1nnn(Cc2ccc3c(c2)OCO3)n1", "NO"],
  ["O=C(Nc1cccc(N2CCOC2=O)c1)C1CC(c2ccccc2)=NO1 (stereo not given)", "YES"],
  ["CCc1cc(-c2n[nH]c(C)c2-c2nc3ccccc3s2)c(O)c(CN2CCN(C)CC2)c1O", "NO"],
  ["O=C1N=c2ccc(Br)cc2=C1c1sc(NS(=O)(=O)Cc2ccccc2)nc1O", "NO"],
  ["COc1ccc(-n2cc(CNCc3ccc4c(c3)OCO4)c(-c3ccccc3Cl)n2)cc1", "NO"],
  ["CC1N(C)c2ccc(C=C(C#N)C#N)cc2C1(C)C (stereo not given)", "NO"],
  ["Cn1c(CCC(=O)Nc2ccc(F)cc2F)nc(=O)c2ccccc21", "YES"],
  ["CCc1nc2c(c(=O)c3ccccc3n2C)c(=O)n1CCc1ccccc1", "NO"],
  ["CC(=NNc1nc2ccccc2[nH]1)c1ccc(C)o1", "YES"],
  ["O=c1cc(O)c2ccccc2o1", "NO"],
  ["Brc1ccc(-c2ccc(CN3CCNCC3)s2)cc1", "YES"],
  ["COC(=O)Nc1ccc(OCc2nc(C)c(C)s2)cc1", "NO"],
  ["C(=NNc1nc2ccccc2[nH]1)c1c(-c2ccccc2)[nH]c2ccccc12", "NO"],
  ["CCN(CC)c1ccc(/C=C2\\SC(=S)N(Cc3ccccc3)C2=O)c(O)c1", "NO"],
  ["CCc1ncc(CN2CCCC(C(=O)Nc3cccc(-c4ccc(F)cc4)c3)C2)cn1 (stereo not given)", "YES"],
  ["CCCc1nnc(SCc2ccc(OCCC(C)C)cc2)n1N", "NO"],
  ["CCCCC1CCC(C(=O)Nc2noc3ncccc23)CC1 (stereo not given)", "YES"],
  ["CC(=O)O[C@H]1C[C@@H](OC(C)=O)C(C)(C)C2C[C@@H](OC(C)=O)[C@]3(C)C(CC[C@@]4(C)[C@H](c5ccoc5)C(=O)[C@H]5O[C@]543)[C@]21C (stereo not given in full)", "NO"],
  ["O=C(Nc1cccc(-c2ccc(F)cc2)c1)C1CCCN(Cc2cccnc2)C1 (stereo not given)", "NO"],
  ["Cc1ccccc1CNCc1cn(-c2ccccc2)nc1-c1ccc2c(c1)OCO2", "NO"],
  ["Cc1cccc(-n2cc(CNCc3ccc(C)o3)c(-c3cccc(F)c3)n2)c1", "NO"],
  ["Cc1ccc(C2(O)CCN(c3noc(-c4ccccc4)n3)CC2)nc1", "NO"],
  ["CC(C)CCNc1nc(C(=O)OC(C)C(N)=O)cs1 (stereo not given)", "NO"],
  ["c1csc(-c2nnc(CON=C3c4ccccc4-c4ccccc43)o2)c1", "NO"],
  ["CC(C)CCOc1ccc(C=C(C#N)C#N)cc1", "NO"],
  ["CC1Oc2ccccc2C=C1/C=N\\Nc1nc2ccccc2[nH]1 (stereo not given)", "YES"],
  ["O=C(CCc1nc2ccccc2s1)N1CCN(Cc2ccc(C(F)(F)F)cc2)CC1", "YES"],
  ["O=C(NCC1COc2ccccc2O1)C1Cc2cc(Cl)ccc2O1 (stereo not given)", "NO"],
  ["O=C(NCCC(=O)N1CCCC1)c1ccc(-c2ccc(Cl)cc2)o1", "YES"],
  ["O=C(NCC1COc2ccccc2O1)c1ccc2c(c1)CCC2 (stereo not given)", "NO"],
  ["O=C(C=Cc1cccs1)N1CCN(Cc2nc3ccccc3s2)CC1", "NO"],
  ["CC1CCCN(Cc2csc(NC(=O)c3cccc(I)c3)n2)C1 (stereo not given)", "NO"],
  ["CSCCC(=O)N1CCCC(C(=O)Nc2ccc(-c3cccc(F)c3)cc2)C1 (stereo not given)", "NO"],
  ["NC(=O)CSc1nccc2c(OCc3ccc(F)cc3)cccc12", "YES"],
  ["Brc1ccc(Cc2nnnn2CCn2cccn2)cc1", "NO"],
  ["Cc1ncc(CNC(=O)N2CCC(C(C)C)CC2)s1", "NO"],
  ["O=C(C1CC1)N1CCC(NCc2ccc(-c3cccc(Br)c3)s2)CC1", "NO"],
  ["CC1=CCCC(C)(C)C1C=CC(C)=NNc1nc2ccccc2[nH]1 (stereo not given)", "NO"],
  ["CC1(C)C(=O)C=C[C@@]2(C)C1C[C@@H](O)[C@]1(C)C2CC[C@@]2(C)[C@H](c3ccoc3)OC(=O)[C@H]3O[C@]321 (stereo not given in full)", "NO"],
  ["C(=NNc1nc2ccccc2[nH]1)C(=NNc1nc2ccccc2[nH]1)c1ccccc1", "YES"]
]}

Ref: PubChem BioAssay AID1259343
